Test system: WaGa
Assay: qHTS assay to identify novel small-molecules to repurpose for Merkel cell carcinoma treatment (AID 1296009); note: nearly all actives have a fitted effect of over 60% in size; note: potency is the fitted concentration of half-maximal effect
Conditions: MCC and control cell lines, CellTiter-Glo viability, 72 h; series mostly up to 46 µM
Excerpt: MCC is a rare and aggressive neuroendocrine skin cancer with limited treatment options. Approximately 80% of MCCs have the Merkel cell polyomavirus (MCPyV) DNA integrated into the host genome (virus-positive: VP-MCC) and viral oncogenes drive oncogenesis. The remaining MCCs are virus-negative (VN-MCC) and are caused by UV mutagenesis. […] Using cell viability as a readout (CellTiter-Glo assay) we found both overlapping and distinct drugs that can be repurposed for the treatment of VP-MCC and VN-MCC. […]
Records with an inconclusive call do not appear. The source made the active and inactive calls. Calls come from the whole dose curve; as a rule, active = well fitted inhibition curve with a large enough effect; inconclusive = small, poorly fitted or top-dose-only effect; inactive = flat fitted curve, though single readings scatter.
quantity.measured: Potency

1. COc1ccc2c(c1OC)CN1CCc3cc4c(cc3C1C2)OCO4 (stereo not given) ... 16.6 µM (active)
2. CCN(CC)C(=O)N[C@@H]1C=C2c3cccc4[nH]cc(c34)C[C@@H]2N(C)C1 ... inactive
3. COC[C@H]1OC(=O)c2coc3c2[C@@]1(C)C1=C(C3=O)C2CCC(=O)[C@@]2(C)C[C@H]1OC(C)=O (stereo not given in full) ... 8.33 µM (active)
4. Fc1ccc(C(OCCN2CCN(CCCc3ccccc3)CC2)c2ccc(F)cc2)cc1 ... 8.41 µM (active)
5. CN(C)CCN(C)CCc1ccc(Cl)c(Cl)c1 ... inactive

Ask | Identify Potency associated with the molecule C[C@]12CCC(=O)C(O)=C1CC[C@@H]1[C@@H]2CC[C@]2(C)C(=O)CC[C@@H]12
Reply | inactive

Ask | Identify Potency associated with the molecule COC1(CS(=O)c2ccccc2)CCN(CCc2c[nH]c3ccc(F)cc23)CC1 (stereo not given)
Reply | inactive

Ask | Identify Potency associated with the molecule O=P1(NCCCl)OCCCN1CCCl (stereo not given)
Reply | inactive

Ask | Identify Potency associated with the molecule Cc1ccc(S(=O)(=O)N[C@@H](CCCCN)C(=O)CCl)cc1
Reply | inactive

Ask | Identify Potency associated with the molecule C=CCN1CC[C@]23c4c5ccc(O)c4O[C@H]2C(=O)CC[C@@]3(O)[C@H]1C5
Reply | inactive

Ask | Identify Potency associated with the molecule CC(C)NCC(O)c1ccccc1Cl (stereo not given)
Reply | inactive

Ask | Identify Potency associated with the molecule Oc1cc(Cl)ccc1Oc1ccc(Cl)cc1Cl
Reply | 55.6 µM (active)

Ask | Identify Potency associated with the molecule Cc1sc2c(c1C)C(c1ccc(Cl)cc1)=N[C@@H](CC(=O)OC(C)(C)C)c1nnc(C)n1-2
Reply | 2.35 µM (active)

Ask | Identify Potency associated with the molecule CC1OC(C)OC(C)O1 (stereo not given)
Reply | inactive

Ask | Identify Potency associated with the molecule O=c1[nH]c2ccccc2n1CCCN1CCC(n2c(=O)[nH]c3cc(Cl)ccc32)CC1
Reply | inactive

Ask | Identify Potency associated with the molecule C#CCOC(C(=O)OCCN(C)C)(c1ccccc1)c1ccccc1
Reply | inactive

Ask | Identify Potency associated with the molecule Cc1ccc(-c2nc3ccc(C)cn3c2CC(=O)N(C)C)cc1
Reply | inactive

Ask | Identify Potency associated with the molecule CCCC1CCCCN1 (stereo not given)
Reply | inactive

Ask | Identify Potency associated with the molecule O=C1CC[C@@]2(O)[C@H]3Cc4ccc(O)c5c4[C@@]2(CCN3CC2CC2)[C@H]1O5
Reply | inactive

Ask | Identify Potency associated with the molecule FC(F)(F)c1cccc(C2=CCN(CCc3ccc4ccccc4c3)CC2)c1
Reply | inactive

Ask | Identify Potency associated with the molecule CCOP(=S)(OCC)Oc1cc(C)nc(C(C)C)n1
Reply | inactive
